# System: Enterococcus sp.
# Method Summary: in vitro antibacterial evaluation, MIC by broth dilution
# Format: cell-based
# Reported Conditions: broth dilution, 18 hours at 35° C.
# From the text: Methods for in vitro Antibacterial Evaluation (Table 1) […]
Reported Property: MIC Enterococcus faecalis (GC 4554)

Query: Complete the entry with MIC Enterococcus faecalis (GC 4554) for CCCCN1CC(C(O)C2NC(=O)C(C(O)C3CNC(=N)N3)NC(=O)C(Cc3ccc(OC4OC(CO)C(OC5OC6COC7(OC6C(O)C5O)C5CC6CC(C5)CC7C6)C(O)C4O)cc3)NC(=O)C(C(C)c3ccccc3)NC(=O)CNC(=O)C(CO)NC2=O)N(C2OC(CO)C(O)C(O)C2O)C1=N (stereo not drawn) [Example 224]
Reply: 4 µg/mL

Query: Give MIC Enterococcus faecalis (GC 4554) for the following compound: CC(c1ccccc1)C1NC(=O)CNC(=O)C(CO)NC(=O)C(CC2CNC(=N)N2C2OC(CO)C(O)C(O)C2O)NC(=O)C(CC2CNC(=N)N2)NC(=O)C(Cc2ccc(OC3OC(CO)C(OC4OC(CO)C(OCc5ccc(OCc6ccccc6)cc5)C(O)C4O)C(O)C3O)cc2)NC1=O (stereo not drawn) [Example 246a]
Reply: 4 µg/mL

Query: Please give the documented MIC Enterococcus faecalis (GC 4554) of CC(c1ccccc1)C1NC(=O)CNC(=O)C(CO)NC(=O)C(C(O)C2CNC(=N)N2C2OC(CO)C(O)C(O)C2O)NC(=O)C(C(O)C2CNC(=N)N2)NC(=O)C(Cc2ccc(OC3OC(CO)C(OC4OC5COC(c6ccc(C(=O)c7cc(I)c(I)c(I)c7)cc6)OC5C(O)C4O)C(O)C3O)cc2)NC1=O (stereo not drawn) [Example 187]
Reply: 64 µg/mL

Query: # return recorded MIC Enterococcus faecalis (GC 4554) for entry CC(c1ccccc1)C1NC(=O)CNC(=O)C(CO)NC(=O)C(C(O)C2CNC(=N)N2C2OC(CO)C(O)C(O)C2O)NC(=O)C(C(O)C2CNC(=N)N2)NC(=O)C(Cc2ccc(OC3OC(CO)C(OC4OC5COC6(CCCCC6C)OC5C(O)C4O)C(O)C3O)cc2)NC1=O (stereo not drawn) [Example 204]
Reply: 16 µg/mL

Query: Please indicate MIC Enterococcus faecalis (GC 4554) recorded for CN=C1N(C)CC(C(O)C2NC(=O)C(Cc3ccc(OC4OC(CO)C(OC5OC6COC7(OC6C(O)C5O)C5CC6CC(C5)CC7C6)C(O)C4O)cc3)NC(=O)C(C(C)c3ccccc3)NC(=O)CNC(=O)C(CO)NC(=O)C(C(O)C3CN(C)C(=NC)N3C3OC(CO)C(O)C(O)C3O)NC2=O)N1C (stereo not drawn) [Example 81]
Reply: >128 µg/mL

Query: Complete the entry with MIC Enterococcus faecalis (GC 4554) for CC(c1ccccc1)C1NC(=O)CNC(=O)C(CO[Si](C)(C)C(C)(C)C)NC(=O)C(C(O)C2CNC(=N)N2C2OC3COC(C)(C)OC3C3OC(C)(C)OC32)NC(=O)C(C(O)C2CNC(=N)N2)NC(=O)C(Cc2ccc(O)cc2)NC1=O (stereo not drawn) [Example 248]
Reply: 64 µg/mL

Query: Output MIC Enterococcus faecalis (GC 4554) of CC(c1ccccc1)C1NC(=O)CNC(=O)C(CO)NC(=O)C(C(O)C2CN(c3ncccn3)C(=N)N2C2OC(CO)C(O)C(O)C2O)NC(=O)C(C(O)C2CNC(=Nc3ncccn3)N2)NC(=O)C(Cc2ccc(OC3OC(CO)C(OC4OC5COC6(OC5C(O)C4O)C4CC5CC(C4)CC6C5)C(O)C3O)cc2)NC1=O (stereo not drawn) [Example 228]
Reply: 32 µg/mL

Query: State its MIC Enterococcus faecalis (GC 4554): COc1ccc(COCC2OC(OC3C(CO)OC(Oc4ccc(CC5NC(=O)C(C(C)c6ccccc6)NC(=O)CNC(=O)C(CO)NC(=O)C(C(O)C6CNC(=N)N6C6OC(CO)C(O)C(O)C6O)NC(=O)C(C(O)C6CNC(=N)N6)NC5=O)cc4)C(O)C3O)C(O)C(O)C2O)cc1OCc1ccccc1 (stereo not drawn) [Example 239]
Reply: 4 µg/mL

Query: Please report the measured MIC Enterococcus faecalis (GC 4554) for CCCC(CCC)C(=O)OCC1OC(Oc2ccc(CC3NC(=O)C(C(C)c4ccccc4)NC(=O)CNC(=O)C(CO)NC(=O)C(C(O)C4CNC(=N)N4C4OC(CO)C(O)C(O)C4O)NC(=O)C(C(O)C4CNC(=N)N4)NC3=O)cc2)C(O)C(O)C1OC1OC(CO)C(O)C(O)C1O (stereo not drawn) [Example 99b]
Reply: 32 µg/mL
